The reported numbers originate from ChEMBL document CHEMBL1201862.

- System: HL-60
- Test protocol: NCI tumour cell line growth inhibition, 48 h
Activity calls are given as the source filed them. No stated cut-off is given here; in the data, active = GI50 up to about 1.1 µM and inactive = higher.
Could you please pick one outcome from this set? active, inactive

Compound: O=C(O)CCNc1ncc2c(n1)-c1ccccc1OC2
Group label: inactive
//
Compound: NCC(=O)NC(CO)C(=O)O (configuration not stated)
Group label: inactive
//
Compound: COC(=O)c1ccc(/C=C(\c2ccc([N+](=O)[O-])o2)S(=O)(=O)c2ccc(NC(C)=O)cc2)o1
Group label: inactive
//
Compound: C[N+](C)(C)CC(=O)N/N=C(\Cc1nc2ccc([N+](=O)[O-])cc2nc1O)C(=O)Nc1nc2ccc([N+](=O)[O-])cc2s1
Group label: inactive

Outcome logged for "CCOC(=O)C1(Cc2ccccc2)Cc2cc3c(cc2C1)CCC3" in this assay: inactive

Outcome logged for "CC(C)=CCCc1c(C)ccc2c1C(=O)C(=O)C(C(C)C)=C2" in this assay: active

Outcome logged for Cc1ccc(C2NC(=O)c3ccccc3N2)s1 (configuration not stated) in this assay: inactive

Outcome logged for "Cl.O=C(O)c1cccnc1" in this assay: inactive

Outcome logged for "Nc1ncc(Cc2nc3ccccc3s2)s1" in this assay: inactive

Outcome logged for COc1cc(OC)c2c(c1)OC(c1ccccc1)CC2=O (configuration not stated) in this assay: inactive

Outcome logged for "O=C1CSCc2sccc21" in this assay: inactive

Outcome logged for CCOC(=O)c1cc(C2=C(S)N(CC(C)CC)CC2)c(C(=O)CC)[nH]1 (configuration not stated) in this assay: inactive
